Molecular target: Sphingosine 1-phosphate receptor 1 (Homo sapiens) (UniProt P21453)
Sequence (P21453 whole entry, looked up): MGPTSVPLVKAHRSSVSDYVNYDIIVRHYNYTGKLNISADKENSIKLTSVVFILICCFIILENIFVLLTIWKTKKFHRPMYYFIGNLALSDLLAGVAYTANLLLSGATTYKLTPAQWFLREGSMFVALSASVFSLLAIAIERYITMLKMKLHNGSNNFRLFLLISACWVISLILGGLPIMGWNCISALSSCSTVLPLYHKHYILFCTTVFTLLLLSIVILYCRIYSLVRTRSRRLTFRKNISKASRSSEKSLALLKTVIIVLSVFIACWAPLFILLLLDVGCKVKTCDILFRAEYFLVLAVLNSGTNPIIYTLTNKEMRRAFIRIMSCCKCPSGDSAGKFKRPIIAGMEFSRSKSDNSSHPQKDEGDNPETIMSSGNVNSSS
Assay: activates the human S1P1 receptor (AID 1044)
Settings: S1P1 agonist cell-based reporter assay; at 4.5 µM; hits give high values
In all, about 16,000 compounds went through this assay and about 240 (1.5%) were called active. Many of the other results were omitted from the sample, so actives are more common in it than they were.
TEST READOUT: activation (%)
Numbers only, in %.

As a guide, the following entries are already answered.
{"COMPOUND": "NC(=O)c1sccc1Br", "U": "%", "activation": -10.4}
{"COMPOUND": "CC(C)S(=O)(=O)/C(C#N)=C/c1ccccc1OC(F)(F)F", "U": "%", "activation": -23.8}
{"COMPOUND": "CN(C)/C=C/C(=O)c1cc(C(C)(C)C)cc(C(C)(C)C)c1O", "U": "%", "activation": 19.8}
{"COMPOUND": "N#Cc1cncc(Br)c1", "U": "%", "activation": -9.98}
{"COMPOUND": "Fc1ccc(Oc2nc(Oc3ccc(F)cc3)nc(N3CCSCC3)n2)cc1", "U": "%", "activation": -33.1}
{"COMPOUND": "O=C1NC(=O)c2cc([N+](=O)[O-])c(Sc3c(Cl)cccc3Cl)cc21", "U": "%", "activation": 16.5}

State recorded activation for all listed compounds.
1. CC(=O)c1ccc(NC(=O)OC2CCSC2)cc1 (stereo not given)
2. COC(=O)C1=C(c2ccccc2)C(c2ccccc2)=C(C(=O)OC)C1=O
3. Clc1ccc(-c2csc(-c3cnccn3)n2)s1
4. O=C(O)CC(CC(=O)Oc1ccccc1N1CCCCC1)c1ccccc1 (stereo not given)

Data returned:
1: -3.04; 2: 6.63; 3: 1.06; 4: -2.68

State recorded activation for all listed compounds.
1. O=C(O)c1nccnc1C(=O)O
2. CCOC(=O)O/N=C(\N)c1ccc(Cl)cc1
3. COc1cc(NC(=O)COc2cc(Cl)c(Cl)cc2Cl)cc(OC)c1OC
4. O=C(Nc1ccc(Cl)cc1)c1csc(COc2ccc3nonc3c2)n1

Data returned:
1: -16.2; 2: 3.02; 3: 22.5; 4: -33.9

State recorded activation for all listed compounds.
1. O=C(NNc1ccc(C(F)(F)F)cn1)c1ccccc1Cl
2. COc1ccc(CCNCC(O)Cn2ccc3ccccc32)cc1OC (stereo not given)
3. CC1=C(C(=O)O)N2C(=O)[C@H](NC(=O)[C@@H](N)c3ccccc3)C2SC1 (stereo not given in full)
4. Cc1onc(-c2ccccc2)c1CNS(=O)(=O)c1ccc2c(c1)OCCN2C

Data returned:
[-0.55, 5.51, 8.53, -10.4]

State recorded activation for all listed compounds.
1. O=c1oc2c3ccccc3c3oc(=O)sc3c2s1
2. CC(=O)Nc1ccc(F)cc1F
3. CC1(C)CC(=O)C(N=Nc2c(F)cccc2F)=C(O)C1
4. Cc1ccc(NC(=O)c2ccccc2NC(=O)c2ccccc2)cc1
5. O=[N+]([O-])c1cc(C(F)(F)F)ccc1OCCO
6. CNC(=O)c1ccccc1Sc1ccccc1C(=O)NC
7. CCOC(=O)NC(=O)/C(=C/NC(C)C)C(=O)OCC

Data returned:
1. 11
2. -19.4
3. 7.55
4. -30.9
5. 8.3
6. -10.2
7. 22.7

State recorded activation for all listed compounds.
1. Cc1ccc([N+](=O)[O-])c(C(=O)NCC(=O)O)c1
2. COc1cccc2cc(C(=O)O)oc12
3. Cc1ccc(NC(C(=O)O)c2ccccc2)cc1 (stereo not given)
4. Cc1onc(-c2ccccc2)c1C(=O)Sc1ccc(C(F)(F)F)cn1

Data returned:
-20
-0.93
81.5
-5.64

Data request: Return activation for the following compound: NC(CC(=O)O)c1ccccc1 (stereo not given)
Data returned: 6.64

###

Biological target: Sphingosine 1-phosphate receptor 1 (Homo sapiens) (UniProt P21453)
Experiment: activates the human S1P1 receptor (AID 1044)
Conditions: S1P1 agonist cell-based reporter assay; at 4.5 µM; hits give high values
Hit rate of the full screen: of about 16,000 compounds, about 240 (1.5%) were called active. The list comes from a sample in which actives are over-represented; it also holds close analogues and randomly drawn compounds.
TEST READOUT: activation (%)
One number for each entry, in %.

As a guide, the following entries are already answered.
{"COMPOUND": "CCc1cccc(C)c1N(C(C)=O)C1=NCCC(=O)S1", "activation (%)": -5.03}
{"COMPOUND": "COc1cccc(C(=O)c2sc3nsc(SCc4ccc(F)cc4)c3c2N)c1", "activation (%)": 50.7}
{"COMPOUND": "S=C(NNC(=S)NC1CC2C=CC1C2)NC1CC2C=CC1C2 (centres undefined)", "activation (%)": -6.61}
{"COMPOUND": "COc1ccc(OC)c(CNC(=O)Cc2cccs2)c1", "activation (%)": 2.66}
{"COMPOUND": "Cc1cc(C)n(/N=c2\\sc(-c3ccccc3)cn2C2CC3C=CC2C3)c(=O)c1C#N (centres undefined)", "activation (%)": -8.12}

State recorded activation for all listed compounds.
1. O=C(Nc1ccc(F)cc1OC(F)(F)F)N1CCC(O)CC1
2. NNC(=O)CSc1nnc(-c2ccccc2)n1-c1ccccc1
3. OC1(C#Cc2ccccc2)CCN(Cc2ccccc2)CC1

Data returned:
1: -2.84; 2: 2.03; 3: -10.7

State recorded activation for all listed compounds.
1. N#CCCSc1sc(=S)sc1SCCC#N
2. O=C1COCC(=O)N1c1ccc2c(c1)OCO2
3. Cn1cc(Br)c(-c2ccc(NC(=O)Nc3ccc(Cl)cc3)cc2)n1
4. N/C(=N\OS(=O)(=O)c1ccc(C(F)(F)F)cc1)C1CSCCS1 (centres undefined)
5. CO/N=C1\C(=O)N(C)c2ccccc21
6. CSC(=Nc1ccccc1C(F)(F)F)N1CCCC1

Data returned:
[2.11, -5.13, 48.5, 6.24, -2.23, 62.5]

State recorded activation for all listed compounds.
1. COC(=O)c1ccc(S(=O)(=O)NNC(=O)c2cn3cc(C(F)(F)F)cc(Cl)c3n2)n1C
2. Cc1nnsc1-c1nnc(SCC(=O)c2ccc3c(c2)OCO3)n1C1CC1
3. COc1cccc(NC(=S)N(CCC#N)C2CCCCC2)c1
4. Cc1ccc(S(=O)(=O)NC(=O)NCCSCc2ccco2)cc1
5. S=C(Nc1cccnc1)N1CCCN(Cc2ccc(Cl)cc2Cl)CC1
6. CCOC(=O)N/N=C(\C)c1cccc(NC(C)=O)c1

Data returned:
1: -20.2; 2: 0.92; 3: -17.6; 4: -7.47; 5: 14.2; 6: 3.43

State recorded activation for all listed compounds.
1. O=C(/C(=N\N=C\c1ccc2c(c1)OCO2)c1ccccc1)c1ccccc1
2. CC1CC(NC(=O)/C(C#N)=C/c2ccc[nH]2)CC(C)(C)C1 (centres undefined)

Data returned:
101
-5.85

State recorded activation for all listed compounds.
1. O=C(O)c1ccccc1Nc1ccccc1F
2. CCOC(=O)C/C(N)=C(\C#N)C(=O)OCC
3. O=c1cc(-c2ccccc2)cc(-c2ccccc2)o1
4. OC(COc1ccc(F)cc1)(c1ccccc1)c1ccccc1
5. CCOC(=O)c1sc2ccccc2c1N
6. CCOC(=O)c1sc(SC)c(-c2ccccc2)c1N

Data returned:
[2.49, -0.14, -7.4, -25.6, -24.7, 103]

State recorded activation for all listed compounds.
1. CS/C(N)=N/N=C/c1cccs1
2. C/C(=N\NC(N)=S)c1cc2cc(Cl)ccc2o1

Data returned:
-0.53
7.17

State recorded activation for all listed compounds.
1. CC1(NC(=O)OCc2ccccc2)CC1NC(=O)OCc1ccccc1 (centres undefined)
2. O=C(NCc1ccc(F)cc1F)c1cc(C(F)(F)F)cc(C(F)(F)F)c1

Data returned:
1. 11.9
2. -5.72

State recorded activation for all listed compounds.
1. Cc1nc(C)c(-c2ccnc(-c3ccc(Cl)cc3)n2)s1
2. CC(C)N(C(=O)c1ccc(-c2ccccc2F)cc1)C(C)C
3. Cc1oc(-c2ccc(Cl)cc2)cc1C(=O)N1CCOCC1
4. O=C(NCc1cc2ccccc2s1)C1CN(C(c2ccccc2)c2ccccc2)C1
5. Cc1nc(-c2ccc(NC(=O)COCC(=O)O)cc2)cs1
6. COC(=O)C1=C(NNc2ccccc2)CSC1
7. OC(CN1CCN(c2ccc(C(F)(F)F)cn2)CC1)c1ccc2c(c1)OCCO2 (centres undefined)
8. CCOC(=O)c1sc(SCCS(=O)(=O)c2ccc(Cl)cc2)c(C#N)c1-c1ccccc1

Data returned:
-14.5
5.33
6.2
-7.79
-4.96
6.31
4.19
-6.04

###

Biological target: Sphingosine 1-phosphate receptor 1 (Homo sapiens) (UniProt P21453)
Assay: activates the human S1P1 receptor (AID 1044)
Settings: S1P1 agonist cell-based reporter assay; at 4.5 µM
The campaign covered roughly 16,000 compounds. About 240 (1.5%) were called active. Cut-off read from the data, not from the text of the source: active = activation above about 80%; inactive = the rest. This excerpt belongs to a sample that is enriched for actives.
A correct response names exactly one class from true (1) = active, false (0) = inactive

Data request: # outcome recorded in this test, key = `Cn1nc(C(C)(C)C)c(NC(=O)c2sccc2Cl)c1C(C)(C)C`
Data returned: false (0)

Data request: # outcome recorded in this test, key = `COc1ccc(NC(NC(=O)c2ccc(OC)cc2)(C(F)(F)F)C(F)(F)F)cc1`
Data returned: false (0)
